Tested on: M14 melanoma
Test: NCI tumour cell line growth inhibition, 48 h
Let's look at some compounds and their measured TGI.

Solved entries (count: 8):
N#Cc1c2c(c(N=P(c3ccccc3)(c3ccccc3)c3ccccc3)n3c1nc1ccccc13)CCCC2    > 100 µM
Cc1ccc(-c2cc3c(SCC(=O)Nc4cc(C(F)(F)F)ccc4Cl)nccn3n2)cc1    > 100 µM
CC(C)NC(=O)OCc1c(COC(=O)NC(C)C)c(-c2cc[n+](COC(=O)C(C)(C)C)cc2)n2c1CCC2    > 100 µM
CC(=O)O[C@H]1/C(=C/c2ccncc2)C[C@H]2[C@@H]3CC=C4C[C@@H](N5CCCC5)CC[C@]4(C)[C@H]3CC[C@]12C    23.8 µM
COc1ccc2c(CN3CCC(C(=O)O)CC3)cc3cc4c(cc3c2c1)OCO4    4.94 µM
Cc1oc2c(Cl)cc(O)c(Cl)c2c2cccc1-2    > 100 µM
CCCCCCCCCCCCCCCCOCC(Cl)COP(=O)(O)OP(=O)(O)OCC1OC(n2cc(C)c(=O)[nH]c2=O)CC1O (centres undefined)    > 100 µM
CC(=O)c1ccc(OCC(O)CO)cc1 (centres undefined)    > 100 µM

// switching to the query compound
Query for M14 melanoma: what TGI does the record show for CC1CCC2(C(=O)O)CCC3(C)C(=CCC4C5(C)CCC(O)C(C)(C)C5CCC43C)C2C1C (centres undefined) ?
4.28 µM
